The reported measurements were obtained from patent US20260317344A1.

target: pEGFR, PC-9 cells (d746-750 EGFR) (Homo sapiens, UniProt P00533, DEL746-750); construct: pEGFR (Tyr1068) TR-FRET; assay: Cellular EGFR phosphorylation assay (LANCE Ultra TR-FRET) in PC-9 cells; assay type: cell-based; conditions: 4 hours at 37° C., read-out: PC-9 pEGFR IC50
Sequence (P00533 with tags, fused parts or gaps DEL746-750): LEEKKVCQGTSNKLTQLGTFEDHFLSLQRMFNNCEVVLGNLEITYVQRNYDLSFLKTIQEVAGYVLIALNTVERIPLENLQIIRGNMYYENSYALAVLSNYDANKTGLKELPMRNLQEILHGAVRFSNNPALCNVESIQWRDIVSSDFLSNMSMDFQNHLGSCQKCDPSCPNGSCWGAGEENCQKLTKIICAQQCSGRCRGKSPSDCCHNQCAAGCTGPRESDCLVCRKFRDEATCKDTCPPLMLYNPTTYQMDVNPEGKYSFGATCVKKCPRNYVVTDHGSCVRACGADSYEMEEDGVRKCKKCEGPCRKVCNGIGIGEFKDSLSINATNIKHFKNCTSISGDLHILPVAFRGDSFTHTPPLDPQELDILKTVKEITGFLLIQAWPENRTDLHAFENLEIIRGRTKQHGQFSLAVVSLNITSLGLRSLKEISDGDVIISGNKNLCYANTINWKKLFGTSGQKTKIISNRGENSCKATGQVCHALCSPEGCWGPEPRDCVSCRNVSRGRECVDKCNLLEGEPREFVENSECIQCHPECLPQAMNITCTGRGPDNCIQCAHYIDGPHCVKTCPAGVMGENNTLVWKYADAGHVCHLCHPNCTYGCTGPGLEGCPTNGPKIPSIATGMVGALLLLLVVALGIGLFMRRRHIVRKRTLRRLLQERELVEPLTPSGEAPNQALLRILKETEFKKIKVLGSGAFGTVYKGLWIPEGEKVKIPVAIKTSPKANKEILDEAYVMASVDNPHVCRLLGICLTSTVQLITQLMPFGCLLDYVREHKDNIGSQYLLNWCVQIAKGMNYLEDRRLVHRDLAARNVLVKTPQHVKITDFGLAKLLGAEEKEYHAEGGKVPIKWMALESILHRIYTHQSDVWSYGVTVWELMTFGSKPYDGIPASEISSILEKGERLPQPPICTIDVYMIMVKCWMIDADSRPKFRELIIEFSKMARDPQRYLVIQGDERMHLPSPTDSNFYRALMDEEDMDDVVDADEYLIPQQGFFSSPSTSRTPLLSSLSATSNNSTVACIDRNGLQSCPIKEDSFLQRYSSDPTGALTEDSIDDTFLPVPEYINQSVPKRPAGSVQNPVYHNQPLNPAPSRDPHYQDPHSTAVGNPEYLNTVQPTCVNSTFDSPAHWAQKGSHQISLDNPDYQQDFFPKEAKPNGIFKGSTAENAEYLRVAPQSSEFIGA
PROPERTY NAME: pIC50
In textbook form, pIC50 equals minus log to base ten of the concentration in mol/L.

As a guide, the following entries are already answered.
{"columns": ["SMILES INPUT", "pIC50"],
 "data": [
  ["Cc1nn(C)c2c1-c1cc3c(n[nH]c3cn1)/C=C/c1c(OCC#N)nn(CCO)c1CN(C)C[C@H](C)O2", 8.25],
  ["CCOc1nn(CCO)c2c1/C=C/c1n[nH]c3c(C)nc(cc13)-c1cnn(C)c1O[C@@H](C)CN(C)C2", 8.44],
  ["Cc1nn(C)c2c1-c1cc3c(n[nH]c3c(C)n1)/C=C/c1c(OCC#N)nn(CCO)c1CN(C)C[C@H](C)O2", 8.62]
]}

Q: # pIC50 lookup, item CCOc1nn([C@@H](C)CO)c2c1/C=C/c1n[nH]c3cnc(cc13)-c1c(C)nn(C)c1O[C@@H](C)CNC2
Ans: 7.90

Q: Request the reported pIC50 associated with Cc1nn(CCO)c2c1/C=C/c1n[nH]c3cnc(cc13)-c1c(C)nn(C)c1O[C@@H](C)CN(C(C)C)C2
Ans: 8.77
